These compounds were tested on Tyrosine-protein kinase Lck (Homo sapiens, UniProt P06239); pIC50 is the recorded read-out.
Sequence (P06239 whole entry): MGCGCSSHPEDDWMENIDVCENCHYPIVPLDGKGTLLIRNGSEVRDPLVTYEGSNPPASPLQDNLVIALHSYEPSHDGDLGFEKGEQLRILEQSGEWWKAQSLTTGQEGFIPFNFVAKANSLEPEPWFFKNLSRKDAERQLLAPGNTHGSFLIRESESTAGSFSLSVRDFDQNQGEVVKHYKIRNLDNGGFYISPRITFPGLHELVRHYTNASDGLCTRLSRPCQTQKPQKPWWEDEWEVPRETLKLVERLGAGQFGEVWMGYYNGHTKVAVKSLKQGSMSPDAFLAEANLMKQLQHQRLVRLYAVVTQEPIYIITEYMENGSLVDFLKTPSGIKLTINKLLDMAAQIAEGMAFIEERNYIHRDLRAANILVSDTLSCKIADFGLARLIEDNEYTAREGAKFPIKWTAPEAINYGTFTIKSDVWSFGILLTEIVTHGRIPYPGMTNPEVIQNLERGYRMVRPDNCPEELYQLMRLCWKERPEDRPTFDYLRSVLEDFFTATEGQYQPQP
pIC50: −log10 of the molar value.
Measure name: pIC50

CC(=O)N1CCc2[nH]c(/C=C3\C(=O)Nc4ccc(OC(C)C)cc43)cc2C1 : 5.96
COc1ccc2c(c1)/C(=C/c1cc3c([nH]1)CCN(C(=O)N1CCOCC1)C3)C(=O)N2 : 6.92
COc1ccc2c(c1)/C(=C/c1[nH]c3c(c1Cl)CN(C(C)=O)CC3)C(=O)N2 : 5.96

(P) CC(=O)N1CCc2[nH]c(/C=C3\C(=O)Nc4ccc([N+](=O)[O-])cc43)cc2C1
(Q) COc1ccc2c(c1)/C(=C/c1cc3c([nH]1)CCN(C(=O)CCN)C3)C(=O)N2
input: So which one has the bigger pIC50 here, P or Q ? The response must carry the label of the picked entry.
output: Q
(Q: 6.85, P: 6.00)
